- ASSAYED TARGET: T1, PUF4 RNA-binding domain (Saccharomyces cerevisiae, UniProt P25339 537-888)
- T1 sequence: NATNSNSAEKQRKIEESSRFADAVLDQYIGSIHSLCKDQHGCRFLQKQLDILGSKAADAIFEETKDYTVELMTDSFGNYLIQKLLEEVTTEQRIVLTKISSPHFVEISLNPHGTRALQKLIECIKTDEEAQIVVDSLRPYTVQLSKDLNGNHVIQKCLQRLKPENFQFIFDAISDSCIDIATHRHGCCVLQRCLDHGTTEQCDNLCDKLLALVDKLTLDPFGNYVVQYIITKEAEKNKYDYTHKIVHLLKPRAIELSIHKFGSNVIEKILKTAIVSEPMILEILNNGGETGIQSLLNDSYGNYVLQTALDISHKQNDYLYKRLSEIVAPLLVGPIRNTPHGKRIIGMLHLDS
- ASSAY OVERVIEW: Mg; RNA-MaP; 20 mM Na-HEPES pH 7.4, 30 mM KOAc, 0.75 mM MgCl2, 0.1% Tween-20, 5% glycerol, 0.1 mg/mL BSA, 2 mM DTT; 25 C; 0.0125-409.6 nM protein
- SETTINGS: tags: N-His6-TEV cleaved; C-SNAP kept, Cy3B-labelled; label: tethered on chip by stalled RNA polymerase
Attribute: pKd
// field semantics: pKd = negative decimal log of concentration (mol/L)

1) Ic_S4_P4E.1_K4.1_C4.1_H4.1_A4.1_F4.1_[T8A]_T4.1 (ssRNA) RNA: UUUGACAACUGAUCGUUCUUUCUUGUAUAUAAUUCUUUCUCGAUCAGUUGUCUUU
8.54
2) UCUCUUUGUACAUUCGUCUCUU (ssRNA) [Ic_S1_P5E.1_K5.1_C5.1_H5.1_A5.1_[T5C]_[T6A]_[A7T]_F5.1_[T9C]_[A10G]_T5.1]
8.00
3) UCUCUUUGUAAACUUUUCUCUU (ssRNA) [Ic_S1_P5E.1_K5.1_C5.1_H5.1_A5.1_[T5A]_[T6A]_[A7C]_F5.1_[A10T]_T5.1]
7.43
4) UCUCUUUUUGUAUAUUAGUUCUCUU (ssRNA) [Id_ii_S1_P4E.2_K4.1_C4.2_[C-2T]_H4.1_A4.1_F4.1_T4.2]
9.59
5) Ie_S2_P5E.1_K5.1_C5.1_H5.1_A5.1_F5.1_[+9CTC]_T5.1 (ssRNA) RNA: UUUGAUUAAUAUGAUAUCGUUCUUUCUUGUAUUAUUCUCAUUCUUUCUCGAUAUCAUAUUAAUCUUU
7.65
6) Ic_S4_P3E.1_K3.1_C3.1_H3.1_A3.1_[T5C]_[A6T]_F3.1_[T7C]_T3.1 (ssRNA) RNA: UUUGACAACUGAUCGUUCUUUCUUGUACUCAUUCUUUCUCGAUCAGUUGUCUUU
6.97

Incoming: Indicate its recorded pKd; the binder in question is Ie_S2_P3E.2_K3.1_C3.2_H3.1_[+1TCT]_A3.1_F3.1_T3.2 (ssRNA) RNA: UUUGAUUAAUAUGAUAUCGUUCUUUCUCUUUCUGUAUAUAUAUUCUUUCUCGAUAUCAUAUUAAUCUUU
Outgoing: 8.95

Incoming: Indicate its recorded pKd; the binder in question is UCUCUUUGUAAUACUUCUCUU (ssRNA) [Ic_S1_P4E.1_K4.1_C4.1_H4.1_A4.1_[T5A]_[A6T]_[T7A]_F4.1_[T8C]_[A9T]_T4.1]
Outgoing: 6.22

Incoming: Indicate its recorded pKd; the binder in question is UCUCUUCUUAUAUAUUAGUUCUCUU (ssRNA) [If_S1_P4E.3_K4.2_C4.2_H4.2_A4.1_F4.1_T4.2]
Outgoing: 8.12

Incoming: Indicate its recorded pKd; the binder in question is Ic_S4_P4E.1_K4.1_C4.1_H4.1_A4.1_[T5A]_[A6C]_[T7G]_F4.1_[T8C]_[A9T]_T4.1 (ssRNA) RNA: UUUGACAACUGAUCGUUCUUUCUUGUAACGCUUUCUUUCUCGAUCAGUUGUCUUU
Outgoing: 6.69

Incoming: Indicate its recorded pKd; the binder in question is Ib_S4_P5E.1_K5.1_C5.1_H5.1_[A4T]_A5.1_[T6A]_F5.1_T5.1 (ssRNA) RNA: UUUGACAACUGAUCGUUCUUUCUUGUUUAAUUAUUCUUUCUCGAUCAGUUGUCUUU
Outgoing: 7.80

Incoming: Indicate its recorded pKd; the binder in question is Ic_S4_P5E.1_K5.1_C5.1_H5.1_A5.1_[T5C]_[T6C]_[A7C]_F5.1_[T8G]_[T9C]_[A10C]_T5.1 (ssRNA) RNA: UUUGACAACUGAUCGUUCUUUCUUGUACCCGCCUUCUUUCUCGAUCAGUUGUCUUU
Outgoing: 6.01

Incoming: Indicate its recorded pKd; the binder in question is Ib_S2_P3E.1_K3.1_C3.1_H3.1_[A4G]_A3.1_[A6C]_F3.1_T3.1 (ssRNA) RNA: UUUGAUUAAUAUGAUAUCGUUCUUUCUUGUGUCUAUUCUUUCUCGAUAUCAUAUUAAUCUUU
Outgoing: 6.97

Incoming: Indicate its recorded pKd; the binder in question is Ic_S2_P4E.1_K4.1_C4.1_H4.1_A4.1_[T5C]_[A6C]_[T7C]_F4.1_[A9T]_T4.1 (ssRNA) RNA: UUUGAUUAAUAUGAUAUCGUUCUUUCUUGUACCCUUUUCUUUCUCGAUAUCAUAUUAAUCUUU
Outgoing: 7.84

Incoming: Indicate its recorded pKd; the binder in question is UCUCUUUGUACCUCUUUAUUAUCUCUU (ssRNA) [Ie_S1_P5E.1_K5.1_C5.1_H5.1_[+4CCTCT]_A5.1_F5.1_T5.1]
Outgoing: 7.45

Incoming: Indicate its recorded pKd; the binder in question is UCUCUUUGUAUGUACUUCUCUU (ssRNA) [Ic_S1_P5E.1_K5.1_C5.1_H5.1_A5.1_[T6G]_[A7T]_F5.1_[T8A]_[T9C]_[A10T]_T5.1]
Outgoing: 7.19
